Data provenance is patent US20230183352A1.

Measured FACS reading of individual entries
molecular target: T1, Claudin 18.2 (CLDN18.2), expressed on CHOS-CLDN 18.2 / HEK293-CLDN 18.2 / HCC827-CLDN 18.2 cells (human, UniProt P56856-2 1-261); test: FACS, CHOS-CLDN18.2 cells, 0.005 µg/ml
T1 construct: whole, on cells; The species is not repeated for the CHOS-CLDN 18.2 cells; also called claudin-18A2
In your answer, state the number alone without any accompanying words.

Use these answered entries as a reference point.
# Binder, FACS reading
records = [
    ("QP190191 (antibody, human IgG1, V domains shown, Chimeric; also called 36A2; mouse-derived chimeric antibody QP190191) VH: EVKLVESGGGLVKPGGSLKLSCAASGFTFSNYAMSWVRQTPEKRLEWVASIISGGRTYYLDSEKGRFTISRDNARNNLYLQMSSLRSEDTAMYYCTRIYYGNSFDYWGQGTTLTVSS VL: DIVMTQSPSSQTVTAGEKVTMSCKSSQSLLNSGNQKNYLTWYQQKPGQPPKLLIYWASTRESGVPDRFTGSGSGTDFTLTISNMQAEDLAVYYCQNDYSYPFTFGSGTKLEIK", 2840),
    ("QP14361435 (antibody, human IgG1, kappa, V domains shown, Humanized from QP190191) VH: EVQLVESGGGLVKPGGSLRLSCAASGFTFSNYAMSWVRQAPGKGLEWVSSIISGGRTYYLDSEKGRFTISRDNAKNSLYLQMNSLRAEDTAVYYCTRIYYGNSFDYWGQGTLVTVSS VL: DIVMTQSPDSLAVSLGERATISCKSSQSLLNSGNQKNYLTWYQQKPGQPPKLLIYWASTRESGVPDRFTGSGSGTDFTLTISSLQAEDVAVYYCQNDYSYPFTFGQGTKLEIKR", 3390),
    ("QP024025 (antibody, human IgG1, V domains shown, also called IMAB362; 175D10(IMAB362)) VH: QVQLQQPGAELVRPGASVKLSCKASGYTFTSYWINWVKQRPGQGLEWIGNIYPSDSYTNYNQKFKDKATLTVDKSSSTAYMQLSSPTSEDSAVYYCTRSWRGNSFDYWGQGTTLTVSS VL: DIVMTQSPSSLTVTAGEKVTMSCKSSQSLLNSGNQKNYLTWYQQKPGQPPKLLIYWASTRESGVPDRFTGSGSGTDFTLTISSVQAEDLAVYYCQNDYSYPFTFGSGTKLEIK", 2830),
    ("QP14371433 (antibody, human IgG1, kappa, V domains shown, Humanized from QP190191; also called QP14331437) VH: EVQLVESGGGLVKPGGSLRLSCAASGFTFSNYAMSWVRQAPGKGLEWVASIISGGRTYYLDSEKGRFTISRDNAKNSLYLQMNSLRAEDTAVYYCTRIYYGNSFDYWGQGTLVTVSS VL: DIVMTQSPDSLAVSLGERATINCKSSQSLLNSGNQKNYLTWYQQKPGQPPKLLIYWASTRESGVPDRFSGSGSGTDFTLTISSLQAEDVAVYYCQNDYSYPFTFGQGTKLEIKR", 3730),
]

Continue with the next binder.
query: Data request, read-out FACS reading, for QP14371435 (antibody, human IgG1, kappa, V domains shown, Humanized from QP190191) VH: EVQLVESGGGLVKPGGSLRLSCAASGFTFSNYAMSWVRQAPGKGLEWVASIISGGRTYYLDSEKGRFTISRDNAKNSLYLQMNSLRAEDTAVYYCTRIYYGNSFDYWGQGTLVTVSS VL: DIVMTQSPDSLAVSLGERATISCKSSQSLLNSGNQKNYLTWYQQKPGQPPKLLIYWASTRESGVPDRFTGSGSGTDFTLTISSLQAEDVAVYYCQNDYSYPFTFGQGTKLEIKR
result: 4130
